Target: JAK1 (Homo sapiens, UniProt P23458)
Construct: purchased Life technology
Sequence (P23458 whole entry): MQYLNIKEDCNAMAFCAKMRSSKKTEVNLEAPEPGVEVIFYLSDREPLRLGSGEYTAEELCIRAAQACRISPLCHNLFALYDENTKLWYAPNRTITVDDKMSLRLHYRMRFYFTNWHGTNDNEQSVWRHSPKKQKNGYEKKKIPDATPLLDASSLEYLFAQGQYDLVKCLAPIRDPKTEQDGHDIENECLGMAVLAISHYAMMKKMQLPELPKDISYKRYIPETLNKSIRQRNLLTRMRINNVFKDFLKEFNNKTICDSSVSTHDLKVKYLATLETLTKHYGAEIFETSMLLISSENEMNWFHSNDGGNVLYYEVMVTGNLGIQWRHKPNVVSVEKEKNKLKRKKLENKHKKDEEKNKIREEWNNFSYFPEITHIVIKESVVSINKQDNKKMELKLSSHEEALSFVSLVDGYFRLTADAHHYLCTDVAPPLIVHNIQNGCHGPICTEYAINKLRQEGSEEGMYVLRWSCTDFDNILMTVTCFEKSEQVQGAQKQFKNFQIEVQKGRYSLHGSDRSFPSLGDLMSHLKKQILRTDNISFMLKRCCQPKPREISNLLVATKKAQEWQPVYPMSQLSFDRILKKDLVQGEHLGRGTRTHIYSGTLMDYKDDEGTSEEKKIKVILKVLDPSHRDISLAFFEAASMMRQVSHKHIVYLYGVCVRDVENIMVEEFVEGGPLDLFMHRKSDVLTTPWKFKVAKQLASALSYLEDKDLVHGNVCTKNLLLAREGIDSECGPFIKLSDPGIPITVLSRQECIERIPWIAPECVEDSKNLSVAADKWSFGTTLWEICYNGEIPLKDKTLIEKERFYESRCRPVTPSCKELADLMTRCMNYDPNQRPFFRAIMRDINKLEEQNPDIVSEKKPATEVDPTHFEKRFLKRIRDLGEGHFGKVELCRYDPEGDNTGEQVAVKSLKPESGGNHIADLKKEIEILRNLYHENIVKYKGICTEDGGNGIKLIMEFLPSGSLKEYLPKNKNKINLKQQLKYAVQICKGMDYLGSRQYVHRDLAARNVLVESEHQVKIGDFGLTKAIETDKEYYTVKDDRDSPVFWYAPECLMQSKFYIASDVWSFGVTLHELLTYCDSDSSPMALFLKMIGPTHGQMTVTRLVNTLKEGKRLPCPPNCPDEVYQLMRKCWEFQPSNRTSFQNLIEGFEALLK
Assay: Test for in vitro activity of JAK1 kinase (LANCE Ultra ULight-JAK-1 peptide)
Type: biochemical
Details: selectivity ratio JAK1 versus JAK2; class symbol

molecule	JAK1/JAK2 (times)
CS(=O)(=O)N1CC(CC#N)(n2cc(-c3cccc4nc(N)nn34)cn2)C1	F1 (1 ≤ F1 ≤ 5)
N#CCC1(n2cc(-c3cccc4nc(NC(=O)C5CC5)nn34)cn2)CN(S(=O)(=O)C2CC2)C1	F1 (1 ≤ F1 ≤ 5)
N#CCC1(n2cc(-c3nccc4nc(NC(=O)C5CC5)nn34)cn2)CN(S(=O)(=O)C(F)(F)F)C1	F1 (1 ≤ F1 ≤ 5)

----------
Biological target: JAK1 (Homo sapiens)
Construct: purchased Life technology
Assay: Test for in vitro activity of JAK1 kinase (LANCE Ultra ULight-JAK-1 peptide)
Type: biochemical
Settings: selectivity ratio JAK1 versus JAK2; class symbol
observable: JAK1/JAK2 (times)

compound	observable	test.value
CS(=O)(=O)N1CC(CC#N)(n2cc(-c3cccc4nc(NC(=O)C5CC5)oc34)cn2)C1	JAK1/JAK2 (times)	F2 (5 < F2 ≤ 10)
CS(=O)(=O)N1CC(CC#N)(n2cc(-c3nccc4nc(NC(=O)CC#N)nn34)cn2)C1	JAK1/JAK2 (times)	F3 (10 < F3 ≤ 25)
N#CCC1(n2cc(-c3cccc4nc(N)nn34)cn2)CN(S(=O)(=O)C(F)(F)F)C1	JAK1/JAK2 (times)	F1 (1 ≤ F1 ≤ 5)
N#CCC1(n2cc(-c3nccc4nc(NC(=O)C5CC(F)(F)C5)nn34)cn2)CN(S(=O)(=O)C(F)(F)F)C1	JAK1/JAK2 (times)	F2 (5 < F2 ≤ 10)
N#CCC1(n2cc(-c3nccc4nc(NC(=O)C5CC5)nn34)cn2)CN(S(=O)(=O)C(F)F)C1	JAK1/JAK2 (times)	F3 (10 < F3 ≤ 25)
CCS(=O)(=O)N1CC(CC#N)(n2cc(-c3cccn4nc(NC(=O)C(F)(F)F)nc34)cn2)C1	JAK1/JAK2 (times)	F1 (1 ≤ F1 ≤ 5)
CS(=O)(=O)N1CC(CC#N)(n2cc(-c3nccc4nc(N)nn34)cn2)C1	JAK1/JAK2 (times)	F1 (1 ≤ F1 ≤ 5)
N#CCC1(n2cc(-c3nccc4nc(NC(=O)C5CC5)nn34)cn2)CN(C(=O)C2CC2)C1	JAK1/JAK2 (times)	F2 (5 < F2 ≤ 10)
N#CCC1(n2cc(-c3cccn4nc(NC(=O)C(F)(F)F)nc34)cn2)CN(S(=O)(=O)C2CC2)C1	JAK1/JAK2 (times)	F1 (1 ≤ F1 ≤ 5)
N#CCC1(n2cc(-c3nccc4nc(NC(=O)C5CC5)nn34)cn2)CN(S(=O)(=O)C2CC2)C1	JAK1/JAK2 (times)	F2 (5 < F2 ≤ 10)
CS(=O)(=O)N1CC(CC#N)(n2cc(-c3cccc4nc(NC(=O)C5CC5)nn34)cn2)C1	JAK1/JAK2 (times)	F1 (1 ≤ F1 ≤ 5)
N#CCC1(n2cc(-c3cccc4nc(NC(=O)C5CC5)nn34)cn2)CN(S(=O)(=O)C(F)(F)F)C1	JAK1/JAK2 (times)	F1 (1 ≤ F1 ≤ 5)
N#CCC1(n2cc(-c3nccc4nc(NC(=O)C5CNC5)nn34)cn2)CN(S(=O)(=O)C(F)(F)F)C1	JAK1/JAK2 (times)	F1 (1 ≤ F1 ≤ 5)
COCC(=O)N1CC(CC#N)(n2cc(-c3nccc4nc(NC(=O)C5CC5)nn34)cn2)C1	JAK1/JAK2 (times)	F1 (1 ≤ F1 ≤ 5)
N#CCC1(n2cc(-c3nccc4nc(NC(=O)C5CC(O)C5)nn34)cn2)CN(S(=O)(=O)C(F)(F)F)C1 (stereo not shown)	JAK1/JAK2 (times)	F2 (5 < F2 ≤ 10)
CCS(=O)(=O)N1CC(CC#N)(n2cc(-c3nccc4nc(NC(=O)C5CC5)nn34)cn2)C1	JAK1/JAK2 (times)	F2 (5 < F2 ≤ 10)

----------
Molecular target: JAK1 (Homo sapiens, UniProt P23458)
Construct: purchased Life technology
Assay: Test for in vitro activity of JAK1 kinase (LANCE Ultra ULight-JAK-1 peptide)
Format: biochemical
Details: selectivity ratio JAK1 versus JAK2; class symbol

molecule	measured.target	JAK1/JAK2 (times)
CS(=O)(=O)N1CC(CC#N)(n2cc(-c3cccc4nc(NC(=O)C5CC5)sc34)cn2)C1	JAK1 (Homo sapiens, UniProt P23458)	F3 (10 < F3 ≤ 25)
CS(=O)(=O)N1CC(CC#N)(n2cc(-c3cccc4nc(N)oc34)cn2)C1	JAK1 (Homo sapiens, UniProt P23458)	F3 (10 < F3 ≤ 25)

----------
Molecular target: JAK2 (Homo sapiens, UniProt O60674)
Construct: purchased Life technology
Sequence (O60674 whole entry): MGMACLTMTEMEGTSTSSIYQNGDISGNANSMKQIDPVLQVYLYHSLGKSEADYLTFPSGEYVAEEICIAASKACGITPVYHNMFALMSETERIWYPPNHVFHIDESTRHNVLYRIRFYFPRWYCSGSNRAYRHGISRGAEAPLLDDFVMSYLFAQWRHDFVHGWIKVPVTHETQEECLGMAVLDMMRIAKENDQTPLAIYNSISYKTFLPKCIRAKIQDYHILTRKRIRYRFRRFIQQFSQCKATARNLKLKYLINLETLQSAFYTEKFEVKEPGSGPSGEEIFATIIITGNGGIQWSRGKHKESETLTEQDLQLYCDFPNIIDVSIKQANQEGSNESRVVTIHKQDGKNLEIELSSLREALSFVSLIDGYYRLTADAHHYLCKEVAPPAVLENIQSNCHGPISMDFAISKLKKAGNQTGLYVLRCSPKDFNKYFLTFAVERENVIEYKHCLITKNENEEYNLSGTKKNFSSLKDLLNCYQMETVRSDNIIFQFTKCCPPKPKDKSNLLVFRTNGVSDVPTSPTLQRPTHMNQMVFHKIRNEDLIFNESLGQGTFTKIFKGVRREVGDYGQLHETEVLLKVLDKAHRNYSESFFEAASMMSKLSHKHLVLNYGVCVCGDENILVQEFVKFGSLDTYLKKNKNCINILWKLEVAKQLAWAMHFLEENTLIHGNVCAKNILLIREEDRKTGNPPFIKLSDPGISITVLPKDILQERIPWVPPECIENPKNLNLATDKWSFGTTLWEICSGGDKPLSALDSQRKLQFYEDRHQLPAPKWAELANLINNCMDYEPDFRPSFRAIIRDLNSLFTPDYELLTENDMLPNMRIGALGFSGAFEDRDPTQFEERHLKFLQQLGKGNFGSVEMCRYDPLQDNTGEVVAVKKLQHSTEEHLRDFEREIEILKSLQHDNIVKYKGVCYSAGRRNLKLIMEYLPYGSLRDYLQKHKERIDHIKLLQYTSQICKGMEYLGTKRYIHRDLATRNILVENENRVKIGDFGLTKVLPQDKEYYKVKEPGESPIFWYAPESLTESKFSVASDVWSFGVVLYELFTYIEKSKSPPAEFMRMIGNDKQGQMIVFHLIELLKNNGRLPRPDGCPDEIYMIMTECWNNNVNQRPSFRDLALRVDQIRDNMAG
Test: Test for in vitro activity of JAK2 kinase (LANCE Ultra ULight-JAK-1 peptide)
Assay type: biochemical
Conditions: recombinant human JAK2, 12 uM ATP, 60 min; class symbol

compound	IC50
N#CCC1(n2cc(-c3cccc4nc(NC(=O)C5CC5)nn34)cn2)CNC1	10 to 100 nM
CS(=O)(=O)N1CC(CC#N)(n2cc(-c3cccc4nc(NC(=O)C5CC5)nn34)cn2)C1	< 10 nM
COCC(=O)N1CC(CC#N)(n2cc(-c3nccc4nc(NC(=O)C5CC5)nn34)cn2)C1	100 to 1000 nM
N#CCC1(n2cc(-c3nccc4nc(NC(=O)C5CNC5)nn34)cn2)CN(S(=O)(=O)C(F)(F)F)C1	10 to 100 nM
N#CCC1(n2cc(-c3cccc4nc(NC(=O)C5CC5)nn34)cn2)CN(S(=O)(=O)C2CC2)C1	< 10 nM
N#CCC1(n2cc(-c3cccc4nc(NC(=O)C5CC5)nn34)cn2)CN(S(=O)(=O)C(F)F)C1	< 10 nM
N#CCC1(n2cc(-c3cccc4nc(N)nn34)cn2)CN(S(=O)(=O)C(F)(F)F)C1	< 10 nM
CS(=O)(=O)N1CC(CC#N)(n2cc(-c3cccc4nc(NC(=O)C5CC5)sc34)cn2)C1	< 10 nM
CCS(=O)(=O)N1CC(CC#N)(n2cc(-c3nccn4nc(NC(=O)C5CC5)nc34)cn2)C1	100 to 1000 nM
N#CCC1(n2cc(-c3nccc4nc(N)nn34)cn2)CN(S(=O)(=O)C(F)(F)F)C1	10 to 100 nM
CCS(=O)(=O)N1CC(CC#N)(n2cc(-c3cccc4nc(NC(=O)C5CC5)nn34)cn2)C1	< 10 nM
N#CCC1(n2cc(-c3cccc4nc(NC(=O)C5CC5)nn34)cn2)CN(S(=O)(=O)C(F)(F)F)C1	< 10 nM
CS(=O)(=O)N1CC(CC#N)(n2cc(-c3nccc4nc(NC(=O)C5CC5)nn34)cn2)C1	10 to 100 nM
CS(=O)(=O)N1CC(CC#N)(n2cc(-c3nccc4nc(NC(=O)CC#N)nn34)cn2)C1	100 to 1000 nM
N#CCC1(n2cc(-c3nccc4nc(NC(=O)C5CC(O)C5)nn34)cn2)CN(S(=O)(=O)C(F)(F)F)C1 (stereo not drawn)	10 to 100 nM

----------
pIC50 values for the compounds below.
Target: JAK2 (Homo sapiens)
Construct: purchased Life technology
Assay: Test for in vitro activity of JAK2 kinase (LANCE Ultra ULight-JAK-1 peptide)
Assay type: biochemical
Conditions: recombinant human JAK2, 12 uM ATP, 60 min; class symbol
pIC50: −log10 of the molar value.
observable: pIC50

molecule	test.value
N#CCC1(n2cc(-c3nccc4nc(NC(=O)C5CC5)nn34)cn2)CN(S(=O)(=O)C(F)(F)F)C1	> 8.00
N#CCC1(n2cc(-c3cccn4nc(NC(=O)C(F)(F)F)nc34)cn2)CN(S(=O)(=O)C2CC2)C1	6.00 to 7.00
COCC(=O)Nc1nc2ccnc(-c3cnn(C4(CC#N)CN(S(=O)(=O)C(F)(F)F)C4)c3)n2n1	7.00 to 8.00
CS(=O)(=O)N1CC(CC#N)(n2cc(-c3nccc4nc(N)nn34)cn2)C1	7.00 to 8.00
CCS(=O)(=O)N1CC(CC#N)(n2cc(-c3cccn4nc(NC(=O)C5CC5)nc34)cn2)C1	> 8.00
N#CCC1(n2cc(-c3nccc4nc(NC(=O)C5CC5)nn34)cn2)CN(C(=O)C2CC2)C1	6.00 to 7.00
N#CCC1(n2cc(-c3nccc4nc(NC(=O)C5CC(F)(F)C5)nn34)cn2)CN(S(=O)(=O)C(F)(F)F)C1	6.00 to 7.00
CCS(=O)(=O)N1CC(CC#N)(n2cc(-c3nccc4nc(NC(=O)C5CC5)nn34)cn2)C1	7.00 to 8.00
CS(=O)(=O)N1CC(CC#N)(n2cc(-c3cccc4nc(NC(=O)C5CC5)oc34)cn2)C1	> 8.00
CS(=O)(=O)N1CC(CC#N)(n2cc(-c3cccc4nc(N)nn34)cn2)C1	7.00 to 8.00
CS(=O)(=O)N1CC(CC#N)(n2cc(-c3cccc4nc(N)oc34)cn2)C1	> 8.00
N#CCC1(n2cc(-c3cccc4ncnn34)cn2)CN(S(=O)(=O)C(F)(F)F)C1	7.00 to 8.00
N#CCC1(n2cc(-c3nccc4nc(NC(=O)C5CC5)nn34)cn2)CN(S(=O)(=O)C2CC2)C1	7.00 to 8.00
N#CCC1(n2cc(-c3nccc4nc(NC(=O)C5CC5)nn34)cn2)CN(S(=O)(=O)C(F)F)C1	> 8.00
CCS(=O)(=O)N1CC(CC#N)(n2cc(-c3cccn4nc(NC(=O)C(F)(F)F)nc34)cn2)C1	6.00 to 7.00
CN(C)Cc1cc(C(=O)N2CCC(N3CC(CC#N)(n4cc(-c5cccc6nc(NC(=O)C7CC7)nn56)cn4)C3)CC2)nc(C(F)(F)F)n1	7.00 to 8.00
